Target: FGFR3 (Homo sapiens, UniProt P22607)
Sequence (P22607 23-806): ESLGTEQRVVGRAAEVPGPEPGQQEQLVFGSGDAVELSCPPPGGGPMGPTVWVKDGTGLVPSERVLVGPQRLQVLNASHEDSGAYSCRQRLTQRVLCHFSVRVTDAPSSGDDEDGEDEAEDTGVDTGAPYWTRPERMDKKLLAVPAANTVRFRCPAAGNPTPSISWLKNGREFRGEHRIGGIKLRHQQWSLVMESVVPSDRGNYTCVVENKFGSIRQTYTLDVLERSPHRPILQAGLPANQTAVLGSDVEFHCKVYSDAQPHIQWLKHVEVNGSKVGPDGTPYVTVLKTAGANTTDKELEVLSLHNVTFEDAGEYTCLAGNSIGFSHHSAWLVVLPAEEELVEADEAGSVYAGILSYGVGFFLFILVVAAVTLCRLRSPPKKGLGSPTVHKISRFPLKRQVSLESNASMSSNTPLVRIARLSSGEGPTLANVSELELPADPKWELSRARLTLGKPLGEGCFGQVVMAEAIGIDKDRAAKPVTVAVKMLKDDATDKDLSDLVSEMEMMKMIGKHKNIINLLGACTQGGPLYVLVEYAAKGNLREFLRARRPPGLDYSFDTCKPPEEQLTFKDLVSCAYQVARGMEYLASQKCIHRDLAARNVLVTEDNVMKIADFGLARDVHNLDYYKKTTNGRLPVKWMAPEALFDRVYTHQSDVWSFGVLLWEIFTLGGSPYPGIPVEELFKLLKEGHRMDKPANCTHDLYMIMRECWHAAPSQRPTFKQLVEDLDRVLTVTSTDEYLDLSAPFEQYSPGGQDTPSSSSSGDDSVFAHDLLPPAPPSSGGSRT
Experiment: FDCP-FGFR3 proliferation assay performed with FGF9
Type: cell-based
Conditions: dimeric dHLX format
QUANTITY_MEASURED: IC50

Consider the molecule PRO-001: HuCAL clone anti-FGFR3 antibody; VH-CDR3 SEQ ID NO:1, VL-CDR3 SEQ ID NO:10; VH SEQ ID NO:19, VL SEQ ID NO:28 (antibody, V domains shown, SEQUENCE FROM PHAGE LIBRARY) VH: QVQLQQSGPGLVKPSQTLSLTCAISGDSVSSNSAAWNWIRQSPGRGLEWLGRTYYRSKWYNDYAVSVKSRITINPDTSKNQFSLQLNSVTPEDTAVYYCARSYYPDFDYWGQGTLVTVSS VL: DIELTQPPSVSVAPGQTARISCSGDALGDKYASWYQQKPGQAPVLVIYDDSDRPSGIPERFSGSNSGNTATLTISGTQAEDEADYYCQSYDGPDLWVFGGGTKLTVLGQ and give its measured IC50.
19 nM
